Target: recombinant human AKR1C3 (Homo sapiens, UniProt P42330)
Construct: GST (cleaved yes)
Sequence (P42330 whole entry): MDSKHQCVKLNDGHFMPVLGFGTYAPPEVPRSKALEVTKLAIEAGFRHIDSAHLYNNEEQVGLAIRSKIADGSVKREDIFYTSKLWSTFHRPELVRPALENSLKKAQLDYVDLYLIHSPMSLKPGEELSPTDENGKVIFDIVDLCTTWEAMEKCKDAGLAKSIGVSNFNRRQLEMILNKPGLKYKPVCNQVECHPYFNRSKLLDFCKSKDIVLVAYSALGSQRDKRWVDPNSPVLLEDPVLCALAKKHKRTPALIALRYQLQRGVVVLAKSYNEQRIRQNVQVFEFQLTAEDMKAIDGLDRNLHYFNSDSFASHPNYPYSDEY
Assay: AKR1C3-inhibitory activity assay (generation of Coumberol from Coumberone)
Details: Coumberone 0.3 μM, NADPH 10 μM, 22° C., typically 90 min, average or median values
Protocol: The AKR1C3-inhibitory activity of the substances of the present invention was measured in the AKR1C3 assay described in the paragraphs below. Essentially, the enzyme activity is measured by quantification of the generation of Coumberol from Coumberone (Halim et al. J. AM. CHEM. SOC. 2008, 130:14123-14128 and Yee et al. Proc. Natl. Acad. Sci. USA 2006, 103:13304-13309). […]
pIC50: −log10 of the molar value.
Hi, to clarify the labels: Met covers pIC50 from 8 upward, Not met covers anything below 8.

Below, 5 molecules whose answers are already recorded.
C[C@@H]1CN(S(=O)(=O)c2ccccc2-c2ccccc2)C[C@H](C)N1C(=O)c1cnn[nH]1 [Example 107] :: Not met
COc1ccc(Cl)cc1S(=O)(=O)N1CCN(C(=O)c2cnn[nH]2)CC1(C)C [Example 124] :: Not met
C[C@@H]1CN(C(=O)c2cnn[nH]2)[C@@H](C)CN1S(=O)(=O)c1ccc(Cl)cc1 [Example 63] :: Met
CC1(C)CN(C(=O)c2c[nH]nn2)CCN1S(=O)(=O)c1cccc(C(F)(F)F)c1 [Example 28] :: Met
CC1(C)CN(C(=O)c2cnn[nH]2)CCN1S(=O)(=O)c1ccc([N+](=O)[O-])cc1 [Example 111] :: Not met

Qu. Given COc1ccc(S(=O)(=O)N2CCN(C(=O)c3cnn[nH]3)CC2(C)C)cc1OC [Example 118] , state whether its pIC50 is at least 8.
Ans. Not met

Qu. Request: Cc1cccc(Cl)c1S(=O)(=O)N1CCN(C(=O)c2cnn[nH]2)CC1(C)C [Example 117]
Ans. Met
